- method: soluble on expression in E. coli; label from the status in PepcDB or PDB records
measured.metric: soluble on expression in E. coli

MGSDKIHHHHHHMESAKDITGRIFNIQKYSIYDGDGVRTLIFMKGCNIRCPWCANPEGIRRAYQILFSPDKCLHCGKCAEACPRGIHTLIADEYGSRFHHIDRTVQCTGCRKCEAACPSNALDIVGKDMTVAELMAVIMQDYSFYQSSGGGVTLSGGEVSLQTDFAVALLQACKQKMINTAVETQGTTSISHYDQLAAVTDMFLFDIKHIDTNQHKALFGIGNENIRRNLEHLVELGANIVIRMPLVRGYNDSYDAIMGAIHYVQKLAKRGNVRRIDILPYHQLGRKKYERLGMIYPIKADPSYNEEELNRLDAFFDEFDFDIRLVRH	not soluble
MSEIVIRHAETRDYEAIRQIHAQPEVYCNTLQVPHPSDHMWQERLADRPGIKQLVACIDGDVVGHLTIDVQQRPRRSHVADFGICVDSRWKNRGVASALMREMIEMCDNWLRVDRIELTVFVDNAPAIKVYKKFGFEIEGTGKKYALRNGEYVDAYYMARVK	not soluble

###

- method: soluble on expression in E. coli; label from the status in PepcDB or PDB records
measured.metric: soluble on expression in E. coli

SNAMVEAIIFDMDGVLFDTEKYYYDRRASFLGQKGISIDHLPPSFFIGGNTKQVWENILRDEYDKWDVSTLQEEYNTYKQNNPLPYKELIFPDVLKVLNEVKSQGLEIGLASSSVKADIFRALEENRLQGFFDIVLSGEEFKESKPNPEIYLTALKQLNVQASRALIIEDSEKGIAAGVAADVEVWAIRDNEFGMDQSAAKGLLDSLTDVLDLI	soluble
MVEVRYLGHSAVLLTDGKTRIVIDPFLTGNPMAALGVGEVQADLILVTHAHGDHFGDSVALSKKGGVVVSTFEIATYAEKHGAKSVPMNLGGTYRFEGGWLKWVPAWHSSSFPDGTYGGMPMGVVVELGGKRIYHAGDTALFSDMRLIGEMGLDLALLPIGDHFTMGPEDALKALELLRPKKVVPIHYNTFPPIRQDGEAFAQRAREKGVEGHALKPGEVLRLD	soluble

###

- method: soluble on expression in E. coli; label from the status in PepcDB or PDB records
measured.metric: soluble on expression in E. coli

Use the examples below as a reference point.
MELYDTEEQQVEAIKDWWKENGKAVIFGAVIGLGGLFGWRYYQDSVVAAQEAASQSYSKAMDALQAKGIESEGTIQTFIDANKETEYAVLAAMQLAKAQVDAGQLDEALAQLEWAKGATKDAALKPLLTFRVARLQAEQGQFDDALTQLTSIQEKSWAGRVAELRGDILMRKGDSAAAYAAYTEAQQAEDASQTLQMKLDDLAK	not soluble
MGSDKIHHHHHHMQEERSEKKIGPFKFQSNFEWKEFPQEEFEWFVKEVEKRFGLNLSSYKPQRVKRRTELLLRKYNVGYREYLNMLIKDKKYLDEFMDKMTINVTEFFRNPEKWWELRDEIIPLIAKNSLRMKFWSAGCSSGEEPYSLAILVHELNLSYKTRILATDIDIGVLRRAQEGIYEERAFVSTPKEYLEKYFEKLPDGRYRIKDSVKKIVEFKRHDLLKDPFEKNFDLIVCRNVVIYFEPEAKNELYRKFAESLKPGGFLFVGNTERIFNYKELGFEIYKPFIYRKVK	not soluble
MGFYQGPDNRKITGGLKGKHRDKRKYEIGNPPTFTTLSAEDIRIKDRTLGGNFKVRLKYTTTANVLDPATNTAKKVKILEILETPANKELARRGIIIRGAKIRTEAGLAVVTSRPGQDGVINAVLLKNESQRS	soluble
MEPGTYELRGTVHDETFNTTVWTPYNFEGFYYSIDENVSTESLTLTEEISGRSIDDEALVYSTSPALVKFEQESWGSYQVIGFMAEKYFAGYPANTFGNSRSVSVLSDDILAKVLIDDDHKRSMFTGSSIALENGYSLKAAEVDVNGNRVLLELYRDGELVDSGITSSNGDYIYEADIGGAEDVPMIAAHISTVFRSRETDAVFIEGIFQVSDDYLELSQGDSFGKMEISTISSSGITMKNEDSISLSRGNTISLMGNVSFKVADSNVLRFYPFVEVKSAPQDQLRIETPDVFVVGEAAEISVTARDAAVSDVEIRLGNQSIGTTGDDGILAYTPTLEGDFTLYANKAGYLSGSKDVDIVLEHHHHHH	soluble

We now examine a further sequence.
So what does the record say about soluble on expression in E. coli for MKLRANIIEKRGTLQVIVSYKDSNGKIRQKWKDTKLKKKGNKKRAEKIRDEFLLELESQLAMECECANPDLLFYDYLLNYLEVSKKQVAFNTYVGYKHYVHNRIYKFFYPKKIKLNRLKPYHLQDFYQYMLNDDCTANTVIHYHAFIRKALQEAVITELISTNVADKVRKPKKKQFVSQVYNQHEILKLLDILSEEKLYLVVLLTAFYGLRRSEVLGLKWSAIDFLNKKIMINHVIIENPENMSQLIKKDQTKNSSSYRTLPLVETIERALVNQAKWQQDNRILLGEDYILKDSEYVFTMEDGRLMKPQYVTHRLSKLIKKNGLKKIRFHDLRHSNASIMLDSGQNMKSIQEWLGHASYSTTANLYTHLTAGVKERAAEALENAFGFKE ? not soluble

###

- method: soluble on expression in E. coli; label from the status in PepcDB or PDB records
measured.metric: soluble on expression in E. coli

Use the examples below as a reference point.
MLDPELIGNPEDILEKPALKILGKEVEVYDLSNPFGYGVPLWPYFNDVIIDRYHYHAKSRVLSQIITTTMHVSTHADAPIHVEEGFPSIDEVPIERYMGEGVVVSIPKKKWEVITAEDLEKADPPIEKGDIVIVNTGWHRYWSDSVKYFCYAPGFYKEAGEWFVKKKVKAVGIDTQALDHPLATREAWHHPGADERNSILPWLKEEYKQLTGRDVSEDFPYWEPCHRLLLTHGIMGWENVGGDIDKVTGQRCTIIGLPIRWVKGDGSIVRLVALVEKR	soluble
MKPHFRNTVERMYRDTFSYNFYNRPILSRRNTVWLCYEVKTKGPSRPPLDAKIFRGQVYSELKYHPEMRFFHWFSKWRKLHRDQEYEVTWYISWSPCTKCTRDMATFLAEDPKVTLTIFVARLYYFWDPDYQEALRSLCQKRDGPRATMKIMNYDEFQHCWSKFVYSQRELFEPWNNLPKYYILLHIMLGEILRHSMDPPTFTFNFNNEPWVRGRHETYLCYEVERMHNDTWVLLNQRRGFLCNQAPHKHGFLEGRHAELCFLDVIPFWKLDLDQDYRVTCFTSWSPCFSCAQEMAKFISKNKHVSLCIFTARIYDDQGRCQEGLRTLAEAGAKISIMTYSEFKHCWDTFVDHQGCPFQPWDGLDEHSQDLSGRLRAILQNQEN	soluble
MGSDKIHHHHHHMLHYNALTRGCGRITLLMLGLALCQPVFAHPHSFIDMQTTVESQNDNITGLRMQWTMDPITSADLLYDAGKAKKDSEVWKKLAAEVMANVLGQHYFTDIYRDSQPVKYAPMPTEYHLSRKGNQAILEFVLPLAHPQPLAGKPLLISTYDPTYFVDMSYQNDKAVKLAPALASRCKTSLVTPKPNTELQSYALSLDKNDAPDEDMDLGKQFAQRVTLQCQ	not soluble
MSLSDELAKLVVEVTSPDGNIKAKLVAGEQLTVAFRPGTYARYDERGLEHQLSRLAMLAWTGYRRGFFEAKGRAEDISAKDAEKEHLNHWDANTRRYNEEMAQIVARGKSSGNVIRAQAKGLAFWKVEIRDGTLASMDEATFCAECVSVLAAVQRDSKNQEILLKDFYFGLNIPKSWRKKNPLRIERGVMD	not soluble

So what does the record say about soluble on expression in E. coli for MSEVEKTYCGFIAIVGRPNVGKSTLLNELLGQKISITSRKPQTTRHRIMGIHTEGPYQAIYVDTPGLHIEEKRAINRLMNRAASSSLGDVELVIFVVEGTHWTADDEMVVNKLRSLQCPVLLAINKVDNVTDKTKLLPHMQFLSQQMNFLDVVPISAEKGMNVDTIASIVRKHMPEAEHHFPEDYITDRSQRFMASEIIREKLMRFLGEELPYSVTVEIEQFVPNERGGYNIHGLILVEREGQKKMVIGNKGSKIKVIGTEARQDMERMFEAKVHLELWVKVKSGWADDERALRSLGYTDDLK ? not soluble

###

- method: soluble on expression in E. coli; label from the status in PepcDB or PDB records
measured.metric: soluble on expression in E. coli

Use the examples below as a reference point.
MKEHVKDKKTAIMGAALKLFTERGFHGTSTAQISKNAGVATGTLFNYFPTKEDLINSLYFEVKGNLGHSMGVGLEAETTFQDKLKRIWSNLVNWGVNNQEEFLFVGQFCSSPYITKFTRDEVMKEYVFLHNFVDEGIKTGEVRDFPAELVIAMFYQGSREVVNLILDSDSSLDKNKIIADGFQILWRGLAKV	not soluble
MSLKITLFGGAGFLGSHVCDKLSEAGHDVTVVDLRPSPYLRPDQTMITGNILDEELVARAVEGADMVFNYAGIADIGEANRRPVDTARINVLGNVIALEACRKAGVKRYVFASSLYVYGKSGGFYRCSKQACELYIENYQAMHGLDYTILRYGSLYGSRADIRNAINRFVAEALEKGAITYYGSPTALREYIHVEDAALCTVEVLKPEYANENIVLSGNQPMRVGDLFKMIGEMLGKDIEVVYQHDPNSGHYQITPYAFMPKVGKKMTPILTTDLGQGILRVMEDVHREMHPDMHDVGGYLVSKDEGHHHHHH	soluble
MSLKRVSEMKFCFCGEKKDSRVKPLRVAIIGAGPAGLSAACSLACDGFDVHVYDKMPEPGGMVAFGIPEWRIPISKVRQAVKEIEELGVVFHMRTKVVYDSPKELGDEFAERFVSLEKLMKEYDAILIATGAWRPRILDIPGKELKGVENALQLLLRINLARIGYLPQTKMPSFEGKRVVVIGAGYTAVDVAKEAKLLGAKSVTIAYRRSLQDSYAKNEFKKLIKEGVKFLEYVTPVRIFGDENVREVEFAKTKVVRGSVITTEEKRTIPADVIIFAIGQIPTNPIKEVLCSNEDILKNAGIFFAGDVISPRNIGTAIREGRKVAEEIKAWLTEHAFLNIRLSYPVSLRDISKSATEGHHHHHH	soluble
MAIRKLLLLLKPIDPYPFLQTEGASLIKNPQVLINYLPQMRLISILNPDHVLQYLESRCKVHKNAIKFCQEILSKKPVEWKPISRNDLSHPIRDVDMVITVGGDGTLLHASHFIDDSVPVLGVNSDPTQAHEVEELSDQFDASRSTGHLCAATVENFEQVLDDILFGRVVPAKVSRISLKLNSETLLSHALNDILIAQPCPAAVSRFSFKIKNKDGASSPKTVNCRSSGLRICTAAGSTAAMQSAGGFVMPMLSRDLQFMVREPISPGSTASLMHSTFKPDQFMDVNWYSDHGTIYIDGCQVQHSVQLGDTIEISSDAPVLNVFLSHGISQIRSRY	soluble

So what does the record say about soluble on expression in E. coli for DCEKEGEVQWFALPVVLVSGCKKERAIEMKLPTEALFACLQNYPHLRALTQETQWLPYLVHSSDLSAVAPDEWWRAKQNTEAAAQHLRRFAPRPLLLPEGQSVHVVYALGFGSGKVQTALGQNLLQAGLPLMQVWQENLASEGVTLFANPLSPDSPVRALSDGSHTRQRMAMDVFAANAIRAVRMQSPR ? not soluble
